Cited source for all entries: the supplement of paper PMC10567573

Answer each item with its documented protein stability index.
B1: TPRG1 (parent)
chain: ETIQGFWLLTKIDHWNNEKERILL

variants of: B1; test: protein stability index of a GFP-peptide fusion (GPS, HEK-293T) (PSI 1-6); higher = more stable; details: c terminus: a fixed tail appended;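 note: lentivirally expressed fusions sorted by FACS into six bins by GFP to DsRed ratio, PSI derived from sequencing read proportions per bin multiplied by bin number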
Numbers only.

INSERT INTO results (variant_key, endpoint_name, observed_value) VALUES
  ('L9D', 'protein stability index', 1.58);

Go through the items and report each one's protein stability index.
1. I3T
2. K11P

*A*
2.18
2.92

Go through the items and report each one's protein stability index.
1. F6Y
2. T2P

*A*
1: 2.51; 2: 1.61

Go through the items and report each one's protein stability index.
1. F6H
2. L24K
3. D13Q

*A*
1. 1.94
2. 2.24
3. 3.45
